meta.source: ChEMBL document CHEMBL2439974

Target: Androgen receptor (Homo sapiens)
Sequence (P10275 whole entry): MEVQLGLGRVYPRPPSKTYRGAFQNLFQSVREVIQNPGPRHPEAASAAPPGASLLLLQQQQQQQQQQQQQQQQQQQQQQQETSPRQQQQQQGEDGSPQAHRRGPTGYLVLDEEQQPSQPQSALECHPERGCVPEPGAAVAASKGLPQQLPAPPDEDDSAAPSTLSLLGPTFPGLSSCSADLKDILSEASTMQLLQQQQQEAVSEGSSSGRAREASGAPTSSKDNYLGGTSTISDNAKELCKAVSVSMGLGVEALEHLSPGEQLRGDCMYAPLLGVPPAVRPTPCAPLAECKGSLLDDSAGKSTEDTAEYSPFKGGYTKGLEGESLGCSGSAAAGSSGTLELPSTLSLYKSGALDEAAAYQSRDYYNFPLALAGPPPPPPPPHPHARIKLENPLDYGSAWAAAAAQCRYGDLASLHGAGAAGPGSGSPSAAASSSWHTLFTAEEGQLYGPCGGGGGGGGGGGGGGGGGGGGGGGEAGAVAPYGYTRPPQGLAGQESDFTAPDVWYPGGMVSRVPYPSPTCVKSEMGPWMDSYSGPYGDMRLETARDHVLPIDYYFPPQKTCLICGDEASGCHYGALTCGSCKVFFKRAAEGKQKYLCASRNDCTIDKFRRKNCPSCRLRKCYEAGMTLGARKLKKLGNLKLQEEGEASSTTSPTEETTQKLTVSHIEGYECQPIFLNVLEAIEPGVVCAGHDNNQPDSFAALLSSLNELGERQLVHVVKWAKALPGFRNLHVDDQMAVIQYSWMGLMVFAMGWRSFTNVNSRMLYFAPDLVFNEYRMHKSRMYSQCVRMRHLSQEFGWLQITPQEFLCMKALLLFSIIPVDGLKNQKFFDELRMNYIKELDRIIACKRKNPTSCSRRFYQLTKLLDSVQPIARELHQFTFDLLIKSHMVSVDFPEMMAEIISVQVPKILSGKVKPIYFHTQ
Assay: Displacement of [3H]-DHT from human GST-tagged androgen receptor LBD (627 to 919) expressed in Escherichia coli HB-101 after 15 hrs by liquid scintillation counting analysis
Documented pIC50 across a set of molecules
// scale note: pIC50 = -log10(conc_M); give the bare number

COc1cccc(C(=O)Nc2ccc(Oc3ccc(O)cc3)c(C)c2)c1 5.04

Now for the molecule whose pIC50 we want.
Query string: Give recorded pIC50 with Androgen receptor (Homo sapiens) for the following molecule: `COc1cccc(C(=O)Nc2ccc(Oc3ccc(O)cc3)cc2)c1`
Result string: 4.70

* * *

target: Androgen receptor (Homo sapiens) (UniProt P10275); assay: Antagonist activity at androgen receptor in human MDA-kb2 cells assessed as inhibition of DHT-induced luciferase activity at 10 uM after 24 hrs by chemiluminescence assay relative to control; format: cell-based
Calls of active or inactive are those of the source. No cut-off for these calls is given here.
value.type: inhibition

Illustrative cases are given below, each with its answer.
COc1cccc(C(=O)Nc2ccc(Oc3ccc(O)cc3)nc2)c1 inactive
COc1cccc(C(=O)Nc2ccc(Oc3ccc(O)cc3)cc2)c1 6%
COc1cccc(C(=O)Nc2ccc(Oc3ccc(O)cc3)c(C)c2)c1 66%
COc1cccc(C(=O)Nc2cc(C)c(Oc3ccc(O)cc3)c(C)c2)c1 69%

Query string: I'd like to know its inhibition. The compound in question is `CC(C)(O)C(=O)Nc1ccc([N+](=O)[O-])c(C(F)(F)F)c1`
Result string: 60%

Query string: What do you have for `COc1cccc(C(=O)Nc2cnc(Oc3ccc(O)cc3)nc2)c1` ?
Result string: inactive
